Molecular target: UniProtKB P00760
Sequence (P00760 whole entry): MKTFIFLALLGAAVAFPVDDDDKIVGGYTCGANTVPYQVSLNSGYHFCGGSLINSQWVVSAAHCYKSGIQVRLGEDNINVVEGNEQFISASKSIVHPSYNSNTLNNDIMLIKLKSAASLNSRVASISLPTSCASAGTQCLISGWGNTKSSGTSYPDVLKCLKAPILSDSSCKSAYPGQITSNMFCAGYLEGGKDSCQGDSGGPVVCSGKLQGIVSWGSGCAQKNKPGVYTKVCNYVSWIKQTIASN
pKi: −log10 of the molar value.
measured.attribute: pKi

>>> meas_value("OB(O)c1ccccc1 [PHENYLBORONIC ACID]")
1.99

Entry source: ChEMBL document CHEMBL1127999
